experimental-system: T1, MBP-fused PDZ domain of SNTA1 (human, UniProt Q13424 87-170)
T1 sequence (looked up): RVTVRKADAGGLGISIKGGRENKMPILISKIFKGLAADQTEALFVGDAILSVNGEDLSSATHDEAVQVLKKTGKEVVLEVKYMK
assay: fluorescence polarisation
Where no end group is shown, it is not given here.
endpoint-name: Kd (µM)
Express your answer in µM, writing the number without its unit.

binder	Kd, µM
KLPSTTL (peptide, UniProt Q15418 729-735, looked up, also: fluorescein labeled, site not given here) [fluorescein labeled RSK1 729-735 peptide, unphosphorylated]	41

Proceeding to the next binder to report its Kd.
Identify the reported Kd for the following entry. KLPSTTL (peptide, UniProt Q15418 729-735, looked up, phosphorylated; fluorescein labeled) [fluorescein labeled RSK1 729-735 peptide, phosphorylated]
4.9
